# Tested on: E. coli TESEC Mtb Alr
# test: growth (OD600 after 10 h); higher = more growth (less inhibition)
# run_conditions: arabinose 10000 nM; compound 0.1 mM; raw OD600 reference: median of DMSO wells 0.264, cell-free background 0.041
Structures can show the parent of a compound that is named as a salt.
Can you tell me growth for the items I'm about to list?
One number for each entry.

compound | reported_property | reported_value
Clc1ccc(COC(Cn2ccnc2)c2ccc(Cl)cc2Cl)cc1 (stereo unspecified) [Econazole nitrate] | growth | 0.0577
CN[C@@H]1[C@@H](O[C@H]2O[C@H](CO)[C@@H](N)[C@H](O)[C@H]2O)OC2C[C@@H](N)[C@@H](O[C@H]3[C@H](O)[C@@H](O)[C@H](N)C[C@@H]3N)OC2[C@@H]1O (stereo partly specified) | growth | 0.0391
CN(C)[C@@H]1C(=O)C(C(N)=O)=C(O)[C@@]2(O)C(=O)C3=C(O)c4c(O)ccc(Cl)c4[C@@H](O)[C@H]3C[C@@H]12 [Demeclocycline hydrochloride] | growth | 0.0459
CCOC(=O)c1ccc(OC(=O)CCCCCNC(=N)N)cc1 [Gabexate mesilate] | growth | 0.158
O=C1c2ccccc2S(=O)(=O)N1CCCCN1CCN(c2ncccn2)CC1 | growth | 0.249

# ---- query compound ----
Enquiry: Any idea what growth was measured for Cc1nnc(NS(=O)(=O)c2ccc(N)cc2)s1 ?
Return: 0.236

meta.source: the supplement of paper PMC9262897
